The reported numbers originate from ChEMBL document CHEMBL1649530.

assay: Terminal half life in mouse at 1.6 to 13 mg/kg, sc; assay type: ADME, organism-based; set-up: dose 1.6-13 mg/kg, route subcutaneous; conditions: in vivo, read-out: beta t1/2 (converted)
Readout kind: half-life (h)
The reply should be a number in h, with the unit left off.

Problem: # lookup: half-life of C[C@@H](c1nc(-c2ccc(C#N)cc2)cs1)[C@](O)(Cn1cncn1)c1cc(F)ccc1F [ISAVUCONAZOLE]
Result: 3.41
